# pIC50 listing for each entry below
target: BACE1 (Homo sapiens, UniProt P56817); assay: In Vitro Enzymatic BACE FRET (Fluorescence Resonance Energy Transfer) Assay; type: biochemical; settings: Table IV, class symbols; read-out: BACE1 FRET assay
Sequence (P56817 46-501, species assumed): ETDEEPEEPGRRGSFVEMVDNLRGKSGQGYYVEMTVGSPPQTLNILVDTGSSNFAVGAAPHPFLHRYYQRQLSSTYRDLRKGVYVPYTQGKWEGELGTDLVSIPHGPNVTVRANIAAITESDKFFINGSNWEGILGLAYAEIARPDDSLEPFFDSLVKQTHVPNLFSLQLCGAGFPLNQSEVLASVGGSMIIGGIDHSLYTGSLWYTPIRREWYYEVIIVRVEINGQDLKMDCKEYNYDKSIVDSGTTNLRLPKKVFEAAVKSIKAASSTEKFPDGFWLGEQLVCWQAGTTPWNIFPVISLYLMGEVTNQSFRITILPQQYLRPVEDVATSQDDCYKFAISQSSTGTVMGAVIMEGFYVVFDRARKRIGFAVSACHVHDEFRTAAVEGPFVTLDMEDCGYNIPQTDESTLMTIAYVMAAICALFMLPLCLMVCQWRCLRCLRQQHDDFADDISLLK
pIC50: −log10 of the molar value.

Some solved entries appear below for comparison.
# Compound, Experimental Target, pIC50
records = [
    ("NC1=N[C@@]2(CO1)c1cc(-c3ccccc3)ccc1Oc1cnc(C3=CCOCC3)cc12", "BACE1 (Homo sapiens, UniProt P56817)", "> 7.00"),
    ("NC1=N[C@@]2(CO1)c1cc(-c3cccnc3)ccc1Oc1cnc(C3=CCOCC3)cc12", "BACE1 (Homo sapiens, UniProt P56817)", "> 7.00"),
]

Enquiry: Give the reported value of pIC50 for this record: NC1=N[C@]2(CO1)c1cc(-c3cc4ccccc4s3)ccc1Oc1ncccc12
Return: < 5.30

Enquiry: Give the reported value of pIC50 for this record: NC1=N[C@@]2(CO1)c1cc(-c3ccccc3)ccc1Oc1ncc(C3=CCOCC3)cc12
Return: > 7.00

Enquiry: Give the reported value of pIC50 for this record: CC(C)(O)Cc1ccc2c(c1)[C@]1(COC(N)=N1)c1cc(-c3cccnc3)ccc1O2
Return: 6.00 to 7.00

---

molecular target: BACE1 (Homo sapiens, UniProt P56817); test: In Vitro Enzymatic BACE FRET (Fluorescence Resonance Energy Transfer) Assay; format: biochemical; conditions: read-out: BACE1 FRET assay
pIC50: −log10 of the molar value.
# pIC50 listing for each entry below

Some solved entries appear below for comparison.
# Molecule, pIC50
rows = [
    ("NC1=N[C@@]2(CO1)c1cc(-c3cccc(F)c3)ccc1Oc1cnc(C3=CCOCC3)cc12 [compound 485]", "> 7.00"),
    ("C[C@@H]1CN(c2cc(F)c3c(c2)[C@]2(COC(N)=N2)c2cc(-c4cncnc4)ccc2O3)C[C@H](C)O1 [compound 501]", "> 7.00"),
]

Enquiry: Give the reported value of pIC50 for this record: CC1(C)C=C(c2cnc3c(c2)[C@]2(COC(N)=N2)c2cc(-c4cccnc4)ccc2O3)CCO1 [compound 481]
Return: > 7.00

Enquiry: Give the reported value of pIC50 for this record: COC(C)(C)C#Cc1cnc2c(c1)[C@@]1(COC(N)=N1)c1cc(-c3cccnc3)ccc1O2 [compound 719]
Return: 6.00 to 7.00

Enquiry: Give the reported value of pIC50 for this record: CC1(C)C[C@H](c2ccc3c(c2)[C@]2(COC(N)=N2)c2cc(-c4cncnc4)ccc2O3)CCO1 [compound 482]
Return: > 7.00

Enquiry: Give the reported value of pIC50 for this record: COC(=O)/C=C/c1ccc2c(c1)[C@]1(COC(N)=N1)c1cc(-c3cccnc3)ccc1O2 [compound 947]
Return: 6.00 to 7.00

Enquiry: Give the reported value of pIC50 for this record: COc1ccc2c(c1)[C@@]1(COC(N)=N1)c1cc(-c3cccnc3)cnc1O2 [compound 670]
Return: 6.00 to 7.00

Enquiry: Give the reported value of pIC50 for this record: CSc1ccc(-c2ccc3c(c2)[C@]2(COC(N)=N2)c2cc(OCC(C)(C)C)ccc2O3)cc1 [compound 787]
Return: > 7.00

Enquiry: Give the reported value of pIC50 for this record: CC(C)(C)COc1ccc2c(c1)[C@@]1(COC(N)=N1)c1cc(-c3cccnc3F)cnc1O2 [compound 952]
Return: > 7.00

Enquiry: Give the reported value of pIC50 for this record: NC1=N[C@@]2(CO1)c1cc(-c3cccnc3)ccc1Oc1cnc(N3CCCC3)cc12 [compound 493]
Return: > 7.00

---

target: BACE1 (Homo sapiens); experiment: In Vitro BACE Cell-based Assay (HEK cell assay): Aβ40 in conditioned medium of cells stably expressing Amyloid Precursor Protein, sandwich ELISA; details: Table IV, class symbols; read-out: HEK cell assay
pIC50: −log10 of the molar value.
Observation Type: pIC50

Enquiry: Give the reported value of pIC50 for this record: NC1=N[C@@]2(CO1)c1cc(Br)ccc1Oc1ccc(Cl)nc12
Return: < 5.30

---

# IC50 listing for each entry below
molecular target: BACE1 (Homo sapiens); experiment: In Vitro BACE Cell-based Assay (HEK cell assay): Aβ40 in conditioned medium of cells stably expressing Amyloid Precursor Protein, sandwich ELISA; settings: HEK cells; read-out: HEK cell assay

# Mol, IC50
records = [
    ("Cc1ccc(-n2ccc3c(c2=O)[C@]2(COC(N)=N2)c2cc(-c4cccnc4)ccc2O3)cc1", "0.1 to 1 µM"),
    ("CC1(C)CC(c2cc(F)c3c(c2)[C@]2(COC(N)=N2)c2cc(-c4cncnc4)ccc2O3)=CCO1", "< 0.1 µM"),
    ("COc1cc(-c2cc3c(cn2)Oc2ccc(-c4cccnc4F)cc2[C@@]32COC(N)=N2)ccn1", "0.1 to 1 µM"),
]

Please turn your attention to the following entry.
Enquiry: Give the reported value of IC50 for this record: CC1(C#Cc2cnc3c(c2)[C@]2(COC(N)=N2)c2cc(-c4ccccc4F)ccc2O3)COC1
Return: < 0.1 µM

---

target: BACE1 (Homo sapiens, UniProt P56817); experiment: In Vitro BACE Cell-based Assay (HEK cell assay): Aβ40 in conditioned medium of cells stably expressing Amyloid Precursor Protein, sandwich ELISA; settings: Table IV, class symbols; read-out: HEK cell assay
pIC50: −log10 of the molar value.
# pIC50 listing for each entry below

Some solved entries appear below for comparison.
# Compound, Measured Value
rows = [
    ("COc1ccc2c(c1)[C@]1(COC(N)=N1)c1cc(-c3ccnc4ccccc34)ccc1O2 [compound 589]", "5.30 to 6.00"),
    ("C[C@@H]1CN(c2ccc3c(c2)[C@]2(COC(N)=N2)c2cc(-c4cccnc4)ccc2O3)C[C@H](C)O1 [Example 662]", "> 7.00"),
    ("NC1=N[C@]2(CO1)c1cc(-c3cc4ccccc4s3)ccc1Oc1ncccc12 [compound 618]", "5.30 to 6.00"),
    ("COc1ccc2c(c1)[C@]1(COC(N)=N1)c1cc(C#CC(C)(C)OC)cnc1O2 [compound 901]", "< 5.30"),
]

Enquiry: Give the reported value of pIC50 for this record: NC1=N[C@]2(CO1)c1cc(-c3ccc(C(F)(F)F)cc3)ccc1Oc1ccc(-c3cncnc3)cc12 [compound 811]
Return: 6.00 to 7.00

Enquiry: Give the reported value of pIC50 for this record: NC1=N[C@]2(CO1)c1ccccc1Oc1cc(F)c(-c3cccnc3)cc12 [compound 569]
Return: 6.00 to 7.00

Enquiry: Give the reported value of pIC50 for this record: COCC(=O)Nc1ccc2c(c1)[C@@]1(COC(N)=N1)c1cc(OC)ccc1O2 [compound 613]
Return: 6.00 to 7.00

Enquiry: Give the reported value of pIC50 for this record: CC(C)(C)COc1ccc2c(c1)[C@]1(COC(N)=N1)c1cc(C(=O)N3CCCCC3)ccc1O2 [compound 873]
Return: 6.00 to 7.00

---

# pIC50 listing for each entry below
Molecular target: BACE1 (Homo sapiens)
Assay: In Vitro BACE Cell-based Assay (HEK cell assay): Aβ40 in conditioned medium of cells stably expressing Amyloid Precursor Protein, sandwich ELISA
Conditions: Table IV, class symbols; read-out: HEK cell assay
Procedure: In Vitro BACE Cell-based Assay The cell-based assay measures inhibition or reduction of Aβ40 in conditioned medium of test compound treated cells expressing amyloid precursor protein. Cells stably expressing Amyloid Precursor Protein (APP) were plated at a density of 40K cells/well in 96 well plates (Costar). […] After 24 h of incubation with the test compounds the supernatant conditioned media was collected and the Aβ 40 levels were determined using a sandwich ELISA. […]
pIC50: −log10 of the molar value.

Some solved entries appear below for comparison.
# Compound, pIC50
records = [
    ("CC(C)(C)COc1ccc2c(c1)[C@]1(COC(N)=N1)c1cc(-c3cnccc3Cl)ccc1O2 [compound 883]", "6.00 to 7.00"),
    ("CN(C)C(=O)/C=C/c1ccc2c(c1)[C@]1(COC(N)=N1)c1cc(-c3cncnc3)ccc1O2 [compound 917]", "6.00 to 7.00"),
    ("CC(C)(C)C#Cc1ccc2c(c1)[C@]1(COC(N)=N1)c1cc(C#CC(C)(C)C)ncc1O2 [compound 847]", "5.30 to 6.00"),
]

Enquiry: Please report pIC50 with BACE1 (Homo sapiens) for item COc1cncc(-c2ccc3c(c2)[C@@]2(COC(N)=N2)c2cc(C#CC(C)(C)C)cnc2O3)c1 [compound 643] .
Return: > 7.00

Enquiry: Please report pIC50 with BACE1 (Homo sapiens) for item CC(C)(C)COc1ccc2c(c1)[C@]1(COC(N)=N1)c1cc(-c3ncccn3)ccc1O2 [compound 885] .
Return: 5.30 to 6.00

Enquiry: Please report pIC50 with BACE1 (Homo sapiens) for item COc1ccc2c(c1)[C@]1(COC(N)=N1)c1cc(NC(=O)C(F)(F)F)ccc1O2 [compound 651] .
Return: 5.30 to 6.00

Enquiry: Please report pIC50 with BACE1 (Homo sapiens) for item NC1=N[C@@]2(CO1)c1cc(-c3cccnc3)ccc1Oc1cnc(C3CCOCC3)cc12 [compound 801] .
Return: > 7.00

Enquiry: Please report pIC50 with BACE1 (Homo sapiens) for item NC1=NC2(CO1)c1cnccc1Oc1ccc(-c3cccnc3)cc12 (centres unmarked) [compound 648] .
Return: 5.30 to 6.00
